Each item that follows carries a reported bioavailability.
# protocol.text: Bioavailability in rat (dose 1 mg/kg i.v. and 2 mg/kg p.o.)
# particulars: in vivo, po, F

# compound.structure.string, units.of.measure, bioavailability
measured = [
    ("COc1ccc([C@](C)(CC(=O)O)NC(=O)[C@@H]2CCN2S(=O)(=O)c2cc(Cl)cc(Cl)c2)cc1", "%", 19),
    ("O=C(O)C[C@@H](NC(=O)[C@@H]1CCN1S(=O)(=O)c1cc(Cl)cc(Cl)c1)c1ccc(OCC(F)(F)F)cc1", "%", 38),
]

====

# measurement.target: Integrin alpha-4/beta-1 (Homo sapiens, UniProt P05556+P13612)
# Sequence (P05556 whole entry): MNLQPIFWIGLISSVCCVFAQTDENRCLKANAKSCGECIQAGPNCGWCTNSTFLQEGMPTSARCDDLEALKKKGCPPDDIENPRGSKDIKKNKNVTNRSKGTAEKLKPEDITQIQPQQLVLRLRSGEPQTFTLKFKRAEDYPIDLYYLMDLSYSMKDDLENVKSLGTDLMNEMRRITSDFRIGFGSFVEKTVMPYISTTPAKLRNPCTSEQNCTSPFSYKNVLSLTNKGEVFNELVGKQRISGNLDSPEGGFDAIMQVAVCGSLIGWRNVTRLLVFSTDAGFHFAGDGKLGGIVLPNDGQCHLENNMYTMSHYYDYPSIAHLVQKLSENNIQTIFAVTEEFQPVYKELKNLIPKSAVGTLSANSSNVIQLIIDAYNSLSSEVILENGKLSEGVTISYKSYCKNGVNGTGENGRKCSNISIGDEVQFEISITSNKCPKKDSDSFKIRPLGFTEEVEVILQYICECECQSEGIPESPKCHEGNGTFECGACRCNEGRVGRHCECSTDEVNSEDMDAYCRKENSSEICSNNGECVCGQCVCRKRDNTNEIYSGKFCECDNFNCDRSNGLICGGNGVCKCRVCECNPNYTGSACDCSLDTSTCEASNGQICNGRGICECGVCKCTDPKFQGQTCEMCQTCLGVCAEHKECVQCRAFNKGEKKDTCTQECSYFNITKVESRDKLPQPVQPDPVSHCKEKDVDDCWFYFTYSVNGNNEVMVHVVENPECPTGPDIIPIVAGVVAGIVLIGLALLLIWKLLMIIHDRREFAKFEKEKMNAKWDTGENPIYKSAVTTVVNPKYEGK
# Sequence (P13612 whole entry): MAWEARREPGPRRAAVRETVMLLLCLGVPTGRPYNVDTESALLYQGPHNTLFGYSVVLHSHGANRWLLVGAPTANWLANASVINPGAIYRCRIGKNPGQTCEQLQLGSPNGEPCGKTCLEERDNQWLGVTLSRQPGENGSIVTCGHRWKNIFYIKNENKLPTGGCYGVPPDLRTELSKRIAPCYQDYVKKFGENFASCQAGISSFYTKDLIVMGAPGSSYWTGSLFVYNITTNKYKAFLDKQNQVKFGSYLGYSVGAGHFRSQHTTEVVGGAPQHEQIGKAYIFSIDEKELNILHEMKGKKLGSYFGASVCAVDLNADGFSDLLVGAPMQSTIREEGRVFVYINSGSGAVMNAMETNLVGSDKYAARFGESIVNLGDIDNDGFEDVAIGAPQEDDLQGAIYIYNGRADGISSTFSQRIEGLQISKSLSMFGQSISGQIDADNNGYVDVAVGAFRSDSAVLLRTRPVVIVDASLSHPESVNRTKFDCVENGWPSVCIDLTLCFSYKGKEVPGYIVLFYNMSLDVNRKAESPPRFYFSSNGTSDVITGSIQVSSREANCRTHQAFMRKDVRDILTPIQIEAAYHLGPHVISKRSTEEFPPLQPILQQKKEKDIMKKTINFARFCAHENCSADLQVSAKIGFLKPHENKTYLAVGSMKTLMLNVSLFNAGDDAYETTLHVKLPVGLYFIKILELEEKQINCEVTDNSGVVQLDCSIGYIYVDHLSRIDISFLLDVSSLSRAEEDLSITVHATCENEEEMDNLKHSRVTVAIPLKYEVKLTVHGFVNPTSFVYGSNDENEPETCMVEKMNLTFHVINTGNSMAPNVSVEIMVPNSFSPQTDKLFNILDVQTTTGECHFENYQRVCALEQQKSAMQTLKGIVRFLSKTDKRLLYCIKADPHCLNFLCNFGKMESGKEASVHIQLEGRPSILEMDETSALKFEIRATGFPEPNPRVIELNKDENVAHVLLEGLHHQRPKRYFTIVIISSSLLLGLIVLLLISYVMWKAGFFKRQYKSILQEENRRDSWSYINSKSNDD
# protocol.text: Inhibitory activity against alpha-4 beta-1 receptor (VLA-4) in human RPMI-8866 cells using [125I]-VCAM-Ig ligand
# Assay type: cell-based
pIC50: −log10 of the molar value.

# compound, pIC50
measured = [
    ("O=C(O)C[C@H](NC(=O)[C@@H]1CCCN1S(=O)(=O)c1cc(Cl)cc(Cl)c1)c1ccccc1", 6.26),
    ("COc1ccc([C@@H](CC(=O)O)NC(=O)[C@@H]2CCN2S(=O)(=O)c2cc(Cl)cc(Cl)c2)cc1 (stereo in doubt; 6g)", 9.41),
    ("C/C=C/[C@@H](CC(=O)O)NC(=O)[C@@H]1CCCN1S(=O)(=O)c1cc(Cl)cc(Cl)c1", 7.89),
    ("O=C(O)C[C@@H](NC(=O)[C@@H]1CCCN1S(=O)(=O)c1cc(Cl)cc(Cl)c1)c1ccc(OC2CC2)cc1", 9.07),
    ("COc1ccc([C@@H](CC(=O)O)NC(=O)[C@@H]2CCN2S(=O)(=O)c2cc(Cl)cc(Cl)c2)cc1 (stereo in doubt; 7g)", 9.31),
    ("CC(C)[C@@H](CC(=O)O)NC(=O)[C@@H]1CCCN1S(=O)(=O)c1cc(Cl)cc(Cl)c1", 8.05),
    ("Cc1ccccc1NC(=O)Nc1ccc(CN[C@@H](CC(C)C)C(=O)N[C@@H](CC(=O)O)c2ccc3c(c2)OCO3)cc1", 8.52),
    ("O=C(O)CCNC(=O)[C@@H]1CCCN1S(=O)(=O)c1cc(Cl)cc(Cl)c1", 5.82),
    ("O=C(O)C[C@H](Cc1ccccc1)NC(=O)[C@@H]1CCCN1S(=O)(=O)c1cc(Cl)cc(Cl)c1", 7.66),
    ("O=C(O)C[C@@H](NC(=O)[C@@H]1CCCN1S(=O)(=O)c1cc(Cl)cc(Cl)c1)c1ccc(O)cc1", 9.13),
    ("O=C(O)C[C@@H](NC(=O)[C@@H]1CCN1S(=O)(=O)c1cc(Cl)cc(Cl)c1)c1ccc(OC(F)F)cc1", 8.89),
    ("O=C(O)C[C@@H](NC(=O)[C@@H]1CCN1S(=O)(=O)c1cc(Cl)cc(Cl)c1)c1ccc(F)cc1", 8.49),
    ("O=C(O)C[C@@H](NC(=O)[C@@H]1CCN1S(=O)(=O)c1cc(Cl)cc(Cl)c1)c1ccc(OCC(F)(F)F)cc1", 8.85),
    ("O=C(O)C[C@@H](NC(=O)[C@@H]1CCN1S(=O)(=O)c1cc(Cl)cc(Cl)c1)c1ccc(OC2CC2)cc1", 9.51),
    ("O=C(O)[C@H](Cc1ccccc1)NC(=O)[C@@H]1CCCN1S(=O)(=O)c1cc(Cl)cc(Cl)c1", 8.85),
    ("O=C(O)C[C@@H](NC(=O)[C@@H]1CCN1S(=O)(=O)c1cc(Cl)cc(Cl)c1)c1ccc(OC2CCCC2)cc1", 9.30),
]
